Molecular target: Neuronal acetylcholine receptor subunit alpha-4 (Homo sapiens, UniProt P43681); note: assay procedure not described here
Sequence (P43681 whole entry): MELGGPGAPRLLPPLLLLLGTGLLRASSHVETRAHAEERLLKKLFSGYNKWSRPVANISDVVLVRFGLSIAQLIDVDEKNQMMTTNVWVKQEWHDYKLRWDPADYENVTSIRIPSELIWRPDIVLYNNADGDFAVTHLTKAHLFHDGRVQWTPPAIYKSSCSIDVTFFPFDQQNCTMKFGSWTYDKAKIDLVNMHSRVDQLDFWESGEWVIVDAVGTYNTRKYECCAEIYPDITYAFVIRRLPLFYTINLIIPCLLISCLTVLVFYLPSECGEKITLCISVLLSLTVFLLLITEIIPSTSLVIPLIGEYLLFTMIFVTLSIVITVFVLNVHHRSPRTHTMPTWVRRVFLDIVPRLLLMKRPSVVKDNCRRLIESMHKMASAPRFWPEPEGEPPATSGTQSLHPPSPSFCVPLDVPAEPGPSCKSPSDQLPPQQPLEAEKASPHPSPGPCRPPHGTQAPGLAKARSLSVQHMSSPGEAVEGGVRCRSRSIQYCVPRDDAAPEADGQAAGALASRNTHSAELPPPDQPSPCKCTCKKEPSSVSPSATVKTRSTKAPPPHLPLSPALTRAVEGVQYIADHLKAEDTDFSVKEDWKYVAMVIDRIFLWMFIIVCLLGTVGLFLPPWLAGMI
Where a SMILES comes first, the peptide text is derived from it. [ ]: non-standard residue; d: D form. pGlu = O=C1CC[C@@H](C(=O)O)N1; Thz = O=C(O)[C@@H]1CSCN1
property.measured: AC50

Example cases with answers are listed next.
molecule	measurement.target	AC50
COc1ccccc1OC1(C)OC(=O)c2ccccc2O1 (stereo not drawn)	Neuronal acetylcholine receptor subunit alpha-4 (Homo sapiens, UniProt P43681)	> 30 µM
O=C(O)COCCN1CCN(C(c2ccccc2)c2ccc(Cl)cc2)CC1 (stereo not drawn)	Neuronal acetylcholine receptor subunit alpha-4 (Homo sapiens, UniProt P43681)	> 10 µM
O=C1CC[C@@H](C(=O)N2CSC[C@H]2C(=O)O)N1 [PIDOTIMOD] ([pGlu]-[Thz]-OH)	Neuronal acetylcholine receptor subunit alpha-4 (Homo sapiens, UniProt P43681)	> 30 µM
CC(C(=O)O)c1ccc2oc(-c3ccc(Cl)cc3)nc2c1 (stereo not drawn)	Neuronal acetylcholine receptor subunit alpha-4 (Homo sapiens, UniProt P43681)	> 30 µM
CCCN(CCC)S(=O)(=O)c1ccc(C(=O)O)cc1	Neuronal acetylcholine receptor subunit alpha-4 (Homo sapiens, UniProt P43681)	> 10 µM
CCC(NC(C)C)C(O)c1ccc(O)c2[nH]c(=O)ccc12 (stereo not drawn)	Neuronal acetylcholine receptor subunit alpha-4 (Homo sapiens, UniProt P43681)	> 30 µM
CO/N=C(\C(=O)N[C@@H]1C(=O)N2C(C(=O)O)=C(CSc3nc(=O)c(=O)[nH]n3C)CS[C@H]12)c1csc(N)n1	Neuronal acetylcholine receptor subunit alpha-4 (Homo sapiens, UniProt P43681)	> 30 µM
CN(Cc1cnc2nc(N)nc(N)c2n1)c1ccc(C(=O)N[C@@H](CCC(=O)O)C(=O)O)cc1 [METHOTREXATE]	Neuronal acetylcholine receptor subunit alpha-4 (Homo sapiens, UniProt P43681)	> 10 µM

As a next step, examine the molecule that follows.
Observed AC50 on Neuronal acetylcholine receptor subunit alpha-4 (Homo sapiens, UniProt P43681) for CC(=O)Nc1ccc(CC(=O)O)cc1 , please.
> 30 µM
